substrate: F protein of respiratory syncytial virus (RSV-Long strain), on infectious virus (respiratory syncytial virus (RSV-Long strain)) (UniProt P12568); test: cell-based or functional assay
Sequence (P12568 26-574): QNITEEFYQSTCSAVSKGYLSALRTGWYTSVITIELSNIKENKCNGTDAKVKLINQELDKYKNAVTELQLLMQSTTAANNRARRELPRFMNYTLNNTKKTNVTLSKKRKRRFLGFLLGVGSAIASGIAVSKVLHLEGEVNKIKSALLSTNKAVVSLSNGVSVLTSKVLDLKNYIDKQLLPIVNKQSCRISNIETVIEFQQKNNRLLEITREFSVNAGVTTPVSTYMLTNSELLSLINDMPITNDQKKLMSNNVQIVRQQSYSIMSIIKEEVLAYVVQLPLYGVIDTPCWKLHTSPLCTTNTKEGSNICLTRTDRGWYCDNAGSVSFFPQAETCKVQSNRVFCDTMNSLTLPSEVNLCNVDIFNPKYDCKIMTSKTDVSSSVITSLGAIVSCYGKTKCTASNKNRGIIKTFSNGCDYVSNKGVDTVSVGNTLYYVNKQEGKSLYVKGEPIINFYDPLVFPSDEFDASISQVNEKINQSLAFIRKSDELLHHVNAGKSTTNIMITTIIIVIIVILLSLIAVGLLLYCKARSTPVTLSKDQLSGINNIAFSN
The reader will find reported Mean IC50 (Control) µg/ml, RSV microneutralization values listed item by item below.
Give the value in µg/mL but do not write µg/mL after it.

Clone 29 (Fab) (Fab, V domains shown) VH: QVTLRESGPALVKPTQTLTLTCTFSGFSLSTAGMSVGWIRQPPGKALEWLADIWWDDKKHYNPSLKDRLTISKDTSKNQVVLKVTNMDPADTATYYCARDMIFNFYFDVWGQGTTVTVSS VL: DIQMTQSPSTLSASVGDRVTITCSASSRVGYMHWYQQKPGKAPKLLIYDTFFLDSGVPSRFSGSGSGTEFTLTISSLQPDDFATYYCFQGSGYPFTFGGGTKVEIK    0.0411
Clone 25 (IgG) (antibody, V domains shown) VH: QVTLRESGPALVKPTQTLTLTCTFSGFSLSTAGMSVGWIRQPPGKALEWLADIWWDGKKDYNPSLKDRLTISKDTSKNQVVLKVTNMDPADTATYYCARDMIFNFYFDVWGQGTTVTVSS VL: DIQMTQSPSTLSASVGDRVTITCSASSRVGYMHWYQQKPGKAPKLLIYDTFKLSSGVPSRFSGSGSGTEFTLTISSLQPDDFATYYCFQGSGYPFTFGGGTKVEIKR    0.0354

Data request, read-out Mean IC50 (Control) µg/ml, RSV microneutralization, for Clone 20 (IgG) (antibody, V domains shown) VH: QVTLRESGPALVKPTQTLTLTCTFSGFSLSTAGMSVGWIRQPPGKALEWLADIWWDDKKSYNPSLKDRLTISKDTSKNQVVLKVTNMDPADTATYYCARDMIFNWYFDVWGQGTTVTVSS VL: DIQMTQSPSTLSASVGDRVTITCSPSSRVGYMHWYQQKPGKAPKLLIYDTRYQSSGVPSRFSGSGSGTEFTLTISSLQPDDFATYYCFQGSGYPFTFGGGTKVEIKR
0.0383
